Below, each of the molecules is paired with its reported melting point value.

Here's what some known entries look like.
{"columns": ["molecule", "melting point"],
 "data": [
  ["CC(C)(Cc1c2c(nn1CCO)c(N)nc1ccccc12)NS(C)(=O)=O", "203 to 204 °C"],
  ["NC(=O)c1[nH]c2cccnc2c1Sc1ccc(Cl)cc1Cl", "266 °C"],
  ["CCOC(=O)C1(O)CSC(O)(C(=O)OCC)CS1 (stereo unspecified)", "139 to 143 °C"],
  ["CN1CCN(CC/C=C/c2ccc3c(Nc4ccc(Sc5nccn5C)c(Cl)c4)c(C#N)cnc3c2)CC1", "225 to 235 °C"],
  ["O=C(O)c1ccc(C=C2CCN(C(=O)c3ccc(Cl)cc3)CC2)c(F)c1", "170 to 173 °C"],
  ["O=P(CN(O)CP(=O)(OCc1ccccc1)OCc1ccccc1)(OCc1ccccc1)OCc1ccccc1", "71 to 73 °C"],
  ["CS(=O)(=O)N1CCC2(CC1)OCCO2", "107 to 109 °C"],
  ["O=c1ccsc2c1[nH]c1ccc(Br)cc12", "334 to 337 °C"]
]}

# input What value of melting point has been reported for the following molecule? "Nc1sc2c(c1C(=O)c1cc3ccccc3o1)CCN(Cc1ccccc1)C2"
# output 83 to 87 °C

# input What value of melting point has been reported for the following molecule? "COc1cc(-n2c(OC)nc(C(F)(F)C(F)(F)F)cc2=O)c(F)cc1Cl"
# output 123 to 125 °C

# input What value of melting point has been reported for the following molecule? Nc1nc(Cl)cc(NC(CO)C2C=CCC2)n1 (stereo unspecified)
# output 201 to 203 °C

# input What value of melting point has been reported for the following molecule? "CCOC(=O)[C@@H](CNC(=O)c1ccccc1)[C@H](O)C(F)(F)F"
# output 108 to 110 °C
